// provenance: patent US20210246166A1

- tested_target: T1, Recombinant human MASP1 enzyme (fragment corresponding to amino acids 297-699, C-terminal His Tag) (human, UniProt P48740 297-699)
- T1 sequence: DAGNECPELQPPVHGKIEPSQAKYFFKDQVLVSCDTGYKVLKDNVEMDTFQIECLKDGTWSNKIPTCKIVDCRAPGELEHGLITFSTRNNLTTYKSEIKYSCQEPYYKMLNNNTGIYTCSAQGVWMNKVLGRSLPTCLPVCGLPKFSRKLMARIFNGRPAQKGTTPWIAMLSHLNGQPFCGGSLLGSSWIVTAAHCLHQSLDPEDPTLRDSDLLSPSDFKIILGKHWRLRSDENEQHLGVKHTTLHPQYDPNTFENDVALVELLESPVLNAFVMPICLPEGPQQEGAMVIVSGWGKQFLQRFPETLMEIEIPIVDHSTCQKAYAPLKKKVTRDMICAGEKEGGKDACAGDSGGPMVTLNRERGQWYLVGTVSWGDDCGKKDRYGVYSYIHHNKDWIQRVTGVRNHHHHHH
- assay_summary: cell-based or functional assay
Bridge positions count the residues as written; N and C are the ends. Square brackets hold non-standard residues; d marks the D form. Ends that are not written are not given here. Phe(2-Cl) = N[C@@H](Cc1ccccc1Cl)C(=O)O; tBuAla = CC(C)(C)C[C@H](N)C(=O)O; Pen = CC(C)(S)[C@H](N)C(=O)O; 3Amb = NCc1cccc(C(=O)O)c1; NMeC = CN[C@@H](CS)C(=O)O; NMeA = CN[C@@H](C)C(=O)O; Abu = CC[C@H](N)C(=O)O
Param label: returns class 1 when human MASP1 IC50 < 6 nM, returns class 0 otherwise, including exact equality.

[
  {
    "binder": "[NMeA]ICSRSLPPICIPD-NH2 (disulfide 3-11; N-terminus assumed; SMILES CC[C@H](C)[C@H](NC(=O)[C@H](C)NC)C(=O)N[C@H]1CSSC[C@@H](C(=O)N[C@H](C(=O)N2CCC[C@H]2C(=O)N[C@@H](CC(=O)O)C(N)=O)[C@@H](C)CC)NC(=O)[C@H]([C@@H](C)CC)NC(=O)[C@@H]2CCCN2C(=O)[C@@H]2CCCN2C(=O)[C@H](CC(C)C)NC(=O)[C@H](CO)NC(=O)[C@H](CCCNC(=N)N)NC(=O)[C@H](CO)NC1=O) [((N-Me)A)-IC+SRSLPPIC+IPD-NH2]",
    "classification": "class 0"
  },
  {
    "binder": "AICSRS[Phe(2-Cl)]PPI[NMeC]IPD-NH2 (disulfide 3-11; N-terminus assumed; SMILES CC[C@H](C)[C@H](NC(=O)[C@H](C)N)C(=O)N[C@H]1CSSC[C@@H](C(=O)N[C@H](C(=O)N2CCC[C@H]2C(=O)N[C@@H](CC(=O)O)C(N)=O)[C@@H](C)CC)N(C)C(=O)[C@H]([C@@H](C)CC)NC(=O)[C@@H]2CCCN2C(=O)[C@@H]2CCCN2C(=O)[C@H](Cc2ccccc2Cl)NC(=O)[C@H](CO)NC(=O)[C@H](CCCNC(=N)N)NC(=O)[C@H](CO)NC1=O) [AIC+SRS-((2-Chloro)F)-PPI-((N-Me)C)+IPD-NH2]",
    "classification": "class 0"
  },
  {
    "binder": "[Abu]ICSRSLPPICIPD-NH2 (disulfide 3-11; N-terminus assumed; SMILES CC[C@H](N)C(=O)N[C@H](C(=O)N[C@H]1CSSC[C@@H](C(=O)N[C@H](C(=O)N2CCC[C@H]2C(=O)N[C@@H](CC(=O)O)C(N)=O)[C@@H](C)CC)NC(=O)[C@H]([C@@H](C)CC)NC(=O)[C@@H]2CCCN2C(=O)[C@@H]2CCCN2C(=O)[C@H](CC(C)C)NC(=O)[C@H](CO)NC(=O)[C@H](CCCNC(=N)N)NC(=O)[C@H](CO)NC1=O)[C@@H](C)CC) [(Abu)-IC+SRSLPPIC+IPD-NH2]",
    "classification": "class 0"
  },
  {
    "binder": "[3Amb]ICSRS[tBuAla]PP[Pen]IP-NH2 (disulfide 3-10; N-terminus assumed; SMILES CC[C@H](C)[C@H](NC(=O)c1cccc(CN)c1)C(=O)N[C@H]1CSSC(C)(C)[C@@H](C(=O)N[C@H](C(=O)N2CCC[C@H]2C(N)=O)[C@@H](C)CC)NC(=O)[C@@H]2CCCN2C(=O)[C@@H]2CCCN2C(=O)[C@H](CC(C)(C)C)NC(=O)[C@H](CO)NC(=O)[C@H](CCCNC(=N)N)NC(=O)[C@H](CO)NC1=O) [(3-(Aminomethyl)benzoic acid)-IC+SRS-((tBu)A)-PP-(Pen)+IP-NH2]",
    "classification": "class 0"
  }
]

Read the next record carefully.
**Q:** Criterion: human MASP1 IC50 strictly below 6 nM. Is it met by AICSRS[tBuAla]P[(2S,3aS,6aS)‑Octahydrocyclopenta(b)pyrrole‑2‑carboxylic acid]I[NMeC]IPD-NH2 (disulfide 3-11) ?
**A:** class 1
